Where do these numbers come from? They come from patent US20220259593A1.

Give Mean relative activity for every item shown.
- Tested on: K562 CRISPRi cells
- test.description: Constant region variant library pooled growth screen, K562
- Type: cell-based, human
- condition.info: sgRNA constant region variants; activity relative to the original, un-modified constant region cr995
One number for each entry.

# example entries with known answers
molecule	Mean relative activity
cr887 (nucleic acid, listed as DNA, chemistry not fully specified) guide: GTTTAAGAGCTAAGCTGGAAACAGCATAGCCAGTTTAAATAAGGCTCGTCCGTTATCAACTTCAAAAAGTGGCACCGAGTCGGTGCT	0.7504
cr691 (nucleic acid, listed as DNA, chemistry not fully specified) guide: GTTTAAGAGCTAAGCTGGAAACAGCATAGCAAGTTTAAATAAGGCTAGTCCGTTATCAACTTGAAAAAGTGGGCCCGAGTCGGGCCT	1.038
cr814 (nucleic acid, listed as DNA, chemistry not fully specified) guide: GTTTAAGAGCTAAGCTGGAAACAGCATAGCAAGTTTAAATAAGGCTAGTCCGTTATCAACTTGAAAAAGTGGGTCCGAGTCGGACCT	1.048

q: Fill in the blank: the reported Mean relative activity of cr469 (nucleic acid, listed as DNA, chemistry not fully specified) guide: GTTTAAGAGCTAAGCTGGAAACAGCATAGCAAGTTTAAATAAGGCTAGTCCCTTATCAACTTGAAAAAGTGGCACCGAGTCGGTGCT is ____.
a: 0.003211
